target: Histone deacetylase 8 (Homo sapiens) (UniProt Q9BY41); test: Inhibition of HDAC8 in human MDA-MB-231 cells assessed as reduction in Notch1 expression at 0.1 to 2.5uM incubated for 48 hrs by Western blot method; type: cell-based
Sequence (Q9BY41 whole entry): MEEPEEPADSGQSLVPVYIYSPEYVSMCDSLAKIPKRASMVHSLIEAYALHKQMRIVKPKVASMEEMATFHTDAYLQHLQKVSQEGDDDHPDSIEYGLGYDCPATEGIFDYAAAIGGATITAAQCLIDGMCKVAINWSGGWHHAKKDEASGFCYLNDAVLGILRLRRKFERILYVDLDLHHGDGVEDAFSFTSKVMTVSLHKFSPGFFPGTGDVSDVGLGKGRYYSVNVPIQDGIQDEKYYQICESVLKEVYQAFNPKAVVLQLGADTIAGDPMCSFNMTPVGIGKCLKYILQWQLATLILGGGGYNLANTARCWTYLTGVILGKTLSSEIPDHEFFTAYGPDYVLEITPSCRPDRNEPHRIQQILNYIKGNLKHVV
Activity calls are given as the source filed them. The calls are words filed in the database; no cut-off is given here.
readoutLabel: inhibition

CC(C)[C@@H](C(=O)Nc1ccc(C(=O)Nc2ccc(F)cc2N)nc1)c1ccccc1 | inactive
C[C@@H](C(=O)Nc1ccc(C(=O)Nc2ccc(F)cc2N)nc1)c1ccccc1 | inactive
CC[C@@H](C(=O)Nc1ccc(C(=O)Nc2ccc(F)cc2N)nc1)c1ccccc1 | inactive
C[C@H](C(=O)Nc1ccc(C(=O)Nc2ccc(F)cc2N)nc1)c1ccccc1 | inactive
CC(C)[C@H](C(=O)Nc1ccc(C(=O)Nc2ccc(F)cc2N)nc1)c1ccccc1 | inactive

-- ask Which inhibition is reported for this molecule? CC(C)[C@H](C(=O)Nc1ccc(C(=O)Nc2ccccc2N)cc1)c1ccccc1
-- reply inactive
